Numbers sourced from patent US5242945A.

system: cyclooxygenase (PGE2); assay: resident murine peritoneal macrophage assay, PGE2; assay type: cell-based, mouse (Swiss Webster); settings: Mus musculus, Peritoneal macrophage; reference compounds; 95% confidence limits on next line; read-out: IC50 PGE2
Give measured IC50 for each item. Keep answers brief.
Answers are plain numbers, in nM.

CCCCCC#CCC#CCC#CCC#CCCCC(=O)O [ETYA, reference compound]
1260

Next item in the queue.
Notebook: CC(Cc1ccc(O)c(O)c1)C(C)Cc1ccc(O)c(O)c1 (centres unmarked) [NDGA, reference compound] , IC50 read as 2150

###

target: human synovial fluid PLA2 (Homo sapiens); construct: Purified human synovial fluid; from tissue; host or cells: human synovial fluid; test: in vitro isolated phospholipase A2 assay, human synovial fluid PLA2; type: biochemical; settings: Table IV; read-out: IC50 HSF (human synovial fluid)
Sequence (P14555 21-144): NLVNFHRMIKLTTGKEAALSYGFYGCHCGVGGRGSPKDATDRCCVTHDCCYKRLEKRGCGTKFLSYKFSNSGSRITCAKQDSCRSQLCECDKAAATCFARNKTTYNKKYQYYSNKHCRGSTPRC
The label Satisfied is reserved for IC50 strictly under 10 µM; Not satisfied covers values equal to or above it.

O=C(/C=C/c1cccc([N+](=O)[O-])c1)C1=C(O)COC1=O
Satisfied
CCCCCCCCCC(=O)C1=C(O)COC1=O [Example 1, 4-Hydroxy-3-(1-oxodecyl)-2(5H)-furanone]
Not satisfied
CCCCCCCC/C=C\CCCCCCCC(=O)C1=C(O)COC1=O
Satisfied
CCCCCC1CC1CC1CC1CCCCCCCC(=O)C1=C(O)COC1=O (stereo not shown)
Satisfied
O=C(/C=C/c1ccccc1)C1=C(O)COC1=O
Not satisfied
CCCC/C=C\CCCCCCCC(=O)C1=C(O)COC1=O
Not satisfied
O=C(CCCCCCC/C=C\c1ccc(Cl)cc1)C1=C(O)COC1=O
Not satisfied
O=C(/C=C/c1ccc(Cl)cc1)C1=C(O)COC1=O
Satisfied
CCCCC/C=C\C/C=C\CCCCCCCC(=O)C1=C(O)COC1=O
Satisfied

[in] Item COc1ccc(/C=C/C(=O)C2=C(O)COC2=O)cc1 : IC50 beneath 10 µM, strictly?
[out] Satisfied
